- SYSTEM: F508delCFTR (Homo sapiens, UniProt P13569, DEL508-508)
- Construct: expressed in transfected cells; host or cells: CFBE41o- human lung-derived epithelial cells (CFBE41o-F508delCFTR-HRP), doxycycline-inducible
- Sequence (P13569 with tags, fused parts or gaps DEL508-508): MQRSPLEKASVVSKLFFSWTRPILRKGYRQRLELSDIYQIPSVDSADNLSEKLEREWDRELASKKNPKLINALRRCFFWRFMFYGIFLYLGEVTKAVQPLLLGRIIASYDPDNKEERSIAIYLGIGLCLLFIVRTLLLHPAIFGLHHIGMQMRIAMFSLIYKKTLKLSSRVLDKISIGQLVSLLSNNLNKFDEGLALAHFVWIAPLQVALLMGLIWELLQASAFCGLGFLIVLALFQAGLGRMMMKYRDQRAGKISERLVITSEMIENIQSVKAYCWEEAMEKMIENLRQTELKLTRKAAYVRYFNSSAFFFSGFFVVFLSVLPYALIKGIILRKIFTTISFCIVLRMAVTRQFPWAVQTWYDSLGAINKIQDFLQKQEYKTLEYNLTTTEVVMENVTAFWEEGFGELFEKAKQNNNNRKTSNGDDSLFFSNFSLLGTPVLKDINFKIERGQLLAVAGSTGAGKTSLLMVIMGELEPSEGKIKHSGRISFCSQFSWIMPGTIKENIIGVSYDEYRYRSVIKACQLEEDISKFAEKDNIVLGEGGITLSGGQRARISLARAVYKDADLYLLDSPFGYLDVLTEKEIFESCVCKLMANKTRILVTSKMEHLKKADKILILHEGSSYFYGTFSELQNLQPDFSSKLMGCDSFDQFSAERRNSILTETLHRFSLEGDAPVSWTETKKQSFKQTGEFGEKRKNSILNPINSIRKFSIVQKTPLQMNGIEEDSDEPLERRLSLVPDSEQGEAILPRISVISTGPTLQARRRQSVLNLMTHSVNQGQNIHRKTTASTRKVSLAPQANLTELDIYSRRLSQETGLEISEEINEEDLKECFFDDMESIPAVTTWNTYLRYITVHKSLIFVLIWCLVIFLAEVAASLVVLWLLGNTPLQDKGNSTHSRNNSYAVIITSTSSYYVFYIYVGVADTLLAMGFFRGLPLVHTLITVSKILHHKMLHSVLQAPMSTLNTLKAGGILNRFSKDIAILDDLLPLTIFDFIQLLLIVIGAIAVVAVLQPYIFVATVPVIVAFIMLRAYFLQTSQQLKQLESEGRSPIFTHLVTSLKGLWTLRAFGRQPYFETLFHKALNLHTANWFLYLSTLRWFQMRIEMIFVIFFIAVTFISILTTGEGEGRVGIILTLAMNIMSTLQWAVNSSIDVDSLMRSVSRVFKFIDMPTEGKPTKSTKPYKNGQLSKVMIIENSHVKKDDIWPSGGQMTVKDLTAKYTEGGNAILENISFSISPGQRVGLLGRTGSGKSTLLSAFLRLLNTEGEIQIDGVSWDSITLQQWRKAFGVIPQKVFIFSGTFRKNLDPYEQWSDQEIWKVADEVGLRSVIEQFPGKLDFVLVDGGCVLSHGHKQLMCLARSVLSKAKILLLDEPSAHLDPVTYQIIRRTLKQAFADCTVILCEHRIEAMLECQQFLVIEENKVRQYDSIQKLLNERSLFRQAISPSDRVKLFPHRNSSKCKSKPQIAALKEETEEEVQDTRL
- TEST NAME: Cell Surface Expression-Horse Radish Peroxidase (CSE-HRP) assay, test compound with co-corrector;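 as to Maximum % activity (with co-corrector): percent of 2 µM positive control corrector over DMSO; co-corrector is that same compound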
- Format: cell-based
- RUN PARAMETERS: maximum at any tested concentration, normalized to on-plate positive control, with 2 μM co-corrector
ENDPOINT LABEL: Maximum % activity (with co-corrector)

{"COMPOUND": "Cc1ccccc1S(=O)(=O)NC(=O)C1Cc2ccccc21 (stereo not drawn)", "ENDPOINT LABEL": "Maximum % activity (with co-corrector)", "VALUE REPORTED": "+ (<150)"}
{"COMPOUND": "CCC1(C(=O)NS(=O)(=O)C2(C)CC2)CCc2c(Cl)cccc21 (stereo not drawn)", "ENDPOINT LABEL": "Maximum % activity (with co-corrector)", "VALUE REPORTED": "++ (≥150 and <350)"}
{"COMPOUND": "CCC1(C(=O)NS(=O)(=O)Cc2ccccc2)CCc2c(Cl)cccc21 (stereo not drawn)", "ENDPOINT LABEL": "Maximum % activity (with co-corrector)", "VALUE REPORTED": "+ (<150)"}
{"COMPOUND": "CCC1(C(=O)NS(=O)(=O)c2ccc3ncccc3c2)CCc2c(Cl)cccc21 (stereo not drawn)", "ENDPOINT LABEL": "Maximum % activity (with co-corrector)", "VALUE REPORTED": "++ (≥150 and <350)"}
{"COMPOUND": "COc1ccc(C(=O)N(C)C)c2c1C(C(=O)NS(=O)(=O)c1cccc3ccccc13)CC2 (stereo not drawn)", "ENDPOINT LABEL": "Maximum % activity (with co-corrector)", "VALUE REPORTED": "+ (<150)"}
{"COMPOUND": "COc1ccc2c(c1OC)CC2C(=O)NS(=O)(=O)c1ccccc1C (stereo not drawn)", "ENDPOINT LABEL": "Maximum % activity (with co-corrector)", "VALUE REPORTED": "+ (<150)"}
{"COMPOUND": "CCC1(C(=O)NS(=O)(=O)c2c(Cl)nc3sccn23)CCc2c(Cl)cccc21 (stereo not drawn)", "ENDPOINT LABEL": "Maximum % activity (with co-corrector)", "VALUE REPORTED": "+ (<150)"}
{"COMPOUND": "CCC1(C(=O)NS(=O)(=O)c2ccccc2C(F)(F)F)CCc2c(Cl)cccc21 (stereo not drawn)", "ENDPOINT LABEL": "Maximum % activity (with co-corrector)", "VALUE REPORTED": "+ (<150)"}

* * *

Parameter: EC50. Scope: all listed entries.
- SYSTEM: F508delCFTR (Homo sapiens, UniProt P13569, DEL508-508)
- Construct: expressed in transfected cells; host or cells: CFBE41o- human lung-derived epithelial cells (CFBE41o-F508delCFTR-HRP), doxycycline-inducible
- TEST NAME: Cell Surface Expression-Horse Radish Peroxidase (CSE-HRP) assay, test compound with co-corrector
- Type: cell-based
- RUN PARAMETERS: with 2 μM co-corrector

{"COMPOUND": "COc1cccc2c1CC(C(=O)NS(=O)(=O)c1cccc3ccccc13)C2 (centres unmarked)", "EC50": "3 to 10 µM"}
{"COMPOUND": "COc1ccc(C2CCC2)c2c1CCC[C@H]2C(=O)NS(=O)(=O)c1cccc2ccccc12", "EC50": "< 3 µM"}
{"COMPOUND": "COc1cccc2c1CCC2C(=O)NS(=O)(=O)c1cc(Cl)ccc1F (centres unmarked)", "EC50": "≥ 10 µM"}
{"COMPOUND": "CCOC(=O)c1ccc(S(=O)(=O)NC(=O)C2CCc3c(OC)cccc32)cc1 (centres unmarked)", "EC50": "≥ 10 µM"}
{"COMPOUND": "COc1ccc2c(c1)[C@@](C)(C(=O)NS(=O)(=O)c1cccc3ccccc13)CC2", "EC50": "< 3 µM"}
{"COMPOUND": "COc1ccc(C2CCC2)c2c1[C@@H](C(=O)NS(=O)(=O)c1cccc3cnn(C)c13)C2 (single isomer, unassigned)", "EC50": "< 3 µM"}
{"COMPOUND": "COc1ccc(C)c2c1CC[C@H]2C(=O)NS(=O)(=O)c1cccc2ccccc12", "EC50": "3 to 10 µM"}
{"COMPOUND": "COCCS(=O)(=O)NC(=O)C1CCc2c(OC)cccc21 (centres unmarked)", "EC50": "≥ 10 µM"}

Value source: patent US20180244611A1
